FYI, the data here is from paper PMC4472624.

# PROTOCOL: Pharmacokinetics of daptomycin in patients undergoing low-flow CVVHDF
# Type: in vivo, human
# STATED CONDITIONS: human, blood, iv; 6 mg/kg i.v. every 48 hours, ICU patients on low-flow CVVHDF, HPLC; mean of three patients; read-out: clearance (CL)
# Experimental: DAP (6 mg/kg) was administered intravenously every 48 hours to CVVHDF patients in the ICU. Blood and filtrate samples were collected at 0, 1, 1.5, 2, 5, 12, 24, and 48 hours after infusion. All collected samples were analyzed using HPLC according to the method of Tobin et al.. Maximum concentration (Cmax), elimination half-life (t1/2), area AUC, Cmin, volume of distribution (Vd), clearance (CL), fraction unbound, and sieving coefficient (Sc) were evaluated. […]
MEASUREMENT KIND: clearance (mL/min)
// note: answer is a bare numeric in mL/min

Input: Query: clearance; subject: CCCCCCCCCC(=O)N[C@@H](Cc1c[nH]c2ccccc12)C(=O)N[C@H](CC(N)=O)C(=O)N[C@@H](CC(=O)O)C(=O)N[C@@H]1C(=O)NCC(=O)N[C@@H](CCCN)C(=O)N[C@@H](CC(=O)O)C(=O)N[C@H](C)C(=O)N[C@@H](CC(=O)O)C(=O)NCC(=O)N[C@H](CO)C(=O)N[C@@H]([C@H](C)CC(=O)O)C(=O)N[C@@H](CC(=O)c2ccccc2N)C(=O)O[C@@H]1C
Output: 9.47

* * *

# PROTOCOL: Pharmacokinetics of daptomycin in patients undergoing low-flow CVVHDF
# Format: in vivo, human
# STATED CONDITIONS: human, blood, iv; 6 mg/kg i.v. every 48 hours, ICU patients on low-flow CVVHDF, HPLC; mean of three patients
MEASUREMENT KIND: fraction unbound
API note: the answer field is a bare number with no unit suffix.

Input: // fraction unbound lookup, key: CCCCCCCCCC(=O)N[C@@H](Cc1c[nH]c2ccccc12)C(=O)N[C@H](CC(N)=O)C(=O)N[C@@H](CC(=O)O)C(=O)N[C@@H]1C(=O)NCC(=O)N[C@@H](CCCN)C(=O)N[C@@H](CC(=O)O)C(=O)N[C@H](C)C(=O)N[C@@H](CC(=O)O)C(=O)NCC(=O)N[C@H](CO)C(=O)N[C@@H]([C@H](C)CC(=O)O)C(=O)N[C@@H](CC(=O)c2ccccc2N)C(=O)O[C@@H]1C
Output: 0.058

* * *

# PROTOCOL: Pharmacokinetics of daptomycin in patients undergoing low-flow CVVHDF
# Type: in vivo, human
# STATED CONDITIONS: human, blood, iv, 6 mg/kg, 6 mg/kg i.v. every 48 hours, low-flow CVVHDF, HPLC; single patient, second listed; read-out: area under the concentration-time curve (AUC)
MEASUREMENT KIND: AUC (µg·h/mL)
Express the result in µg·h/mL but write the number alone.

Input: Which AUC value belongs to CCCCCCCCCC(=O)N[C@@H](Cc1c[nH]c2ccccc12)C(=O)N[C@H](CC(N)=O)C(=O)N[C@@H](CC(=O)O)C(=O)N[C@@H]1C(=O)NCC(=O)N[C@@H](CCCN)C(=O)N[C@@H](CC(=O)O)C(=O)N[C@H](C)C(=O)N[C@@H](CC(=O)O)C(=O)NCC(=O)N[C@H](CO)C(=O)N[C@@H]([C@H](C)CC(=O)O)C(=O)N[C@@H](CC(=O)c2ccccc2N)C(=O)O[C@@H]1C [DAP, daptomycin] ?
Output: 967
